Target Or System: T1, human calcitonin (a) receptor (human, UniProt P30988 25-474)
T1 sequence (looked up): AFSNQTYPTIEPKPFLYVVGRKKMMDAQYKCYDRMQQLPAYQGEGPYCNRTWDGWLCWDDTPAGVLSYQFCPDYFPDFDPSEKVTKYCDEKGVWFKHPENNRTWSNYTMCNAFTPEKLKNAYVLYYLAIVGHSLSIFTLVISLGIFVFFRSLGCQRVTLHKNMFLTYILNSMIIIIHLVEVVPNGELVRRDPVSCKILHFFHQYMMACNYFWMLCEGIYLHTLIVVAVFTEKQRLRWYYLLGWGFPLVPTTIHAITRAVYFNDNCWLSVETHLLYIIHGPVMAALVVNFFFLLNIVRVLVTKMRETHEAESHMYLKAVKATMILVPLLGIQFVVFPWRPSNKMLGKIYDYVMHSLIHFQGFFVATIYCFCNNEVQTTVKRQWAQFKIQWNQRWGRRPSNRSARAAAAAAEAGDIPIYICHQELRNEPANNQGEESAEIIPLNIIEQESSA
Test Details: cell-based or functional assay
Starred links: 1 amine or outer side, 2 acyl side, 3 side chain; linkers in the order of their positions; H or OH if unused. Positions of bridges follow the written chain, without caps; N, C: chain ends. Non-standard residues stand in square brackets, D forms with d. *: point of attachment. C20 diacid = O=C(O)CCCCCCCCCCCCCCCCCCC(=O)*; 19‑carboxyheptadecanoyl = not defined here; γGlu = O=C(O)[C@H](CCC(=O)[*:2])N[*:1]; AEEA = NCCOCCOCC(=O)O
Each item that follows carries a reported CTa receptor human EC50.

Binder: {19‑carboxyheptadecanoyl-γGlu-AEEA-AEEA}-[dR][dR]KCNTATCATQRLAEFLHRSSNNFGPILPPTNVGSNTY-NH2 (disulfide 4-9; reading uncertain; also: printed as N-alpha-[2-(2-{2-[2-(2-{2-[(S)-4-Carboxy-4-(19-carboxyheptadecanoylamino)butyrylamino]ethoxy}ethoxy)acetylamino]ethoxy}ethoxy)acetyl]-D-Arg-D-Arg-[Glu14,His17,Arg18]-pramlintide)
CTa receptor human EC50: 0.642 nM

Binder: {C20 diacid-γGlu}-EKCNTATCATQRLAEFLHHSSNNFGPILPPTNVGSNTY-NH2 (disulfide 3-8; not fully specified; printed as N-alpha-[(S)-4-Carboxy-4-(19-carboxynonadecanoylamino)butyryl]-Glu-[Glu14,His17]-pramlintide) [N-alpha-[(S)-4-Carboxy-4-(19-carboxynonadecanoylamino)butyryl]-Glu-[Glu14,His17]-pramlintide]
CTa receptor human EC50: 0.214 nM

Binder: {19‑carboxyheptadecanoyl-γGlu-AEEA-AEEA}-KCNTATCATQRLAEFLHHSSKNFGPILPPTNVGSNTP-NH2 (disulfide 2-7; reading uncertain; also: printed as N-alpha-[2-(2-{2-[2-(2-{2-[(S)-4-Carboxy-4-(19-carboxyheptadecanoylamino)butyrylamino]ethoxy}ethoxy)acetylamino]ethoxy}ethoxy)acetyl]-[Glu14,His17,Lys21,Pro37]-pramlintide)
CTa receptor human EC50: 0.085 nM

Binder: {C20 diacid-γGlu}-HCNTATCATQRLAEFLHHSSNNFGPILPPTNVGSNTY-NH2 (disulfide 2-7; not fully specified; printed as N-alpha-[(S)-4-Carboxy-4-(19-carboxynonadecanoylamino)butyryl]-[His1,Glu14,His17]-pramlintide) [N-alpha-[(S)-4-Carboxy-4-(19-carboxynonadecanoylamino)butyryl]-[His1,Glu14,His17]-pramlintide]
CTa receptor human EC50: 0.126 nM

Binder: {19‑carboxyheptadecanoyl-γGlu-AEEA-AEEA}-HCNTATCATQRLAEFLHRATQELGPILPPTNVGSNTY-NH2 (disulfide 2-7; reading uncertain; also: printed as N-alpha-[2-(2-{2-[2-(2-{2-[(S)-4-Carboxy-4-(19-carboxyheptadecanoylamino)butyrylamino]ethoxy}ethoxy)acetylamino]ethoxy}ethoxy)acetyl]-[His1,Glu14,His17,Arg18,Ala19,Thr20,Gln21,Glu22,Leu23]-pramlintide)
CTa receptor human EC50: 0.492 nM

Reference for the values: patent US20130005646A1
